system: LOX IMVI melanoma; test: NCI tumour cell line growth inhibition, 48 h
Measured GI50 accompanies every entry in the list below.

Illustrative cases are given below, each with its answer.
{"MOLECULE": "Nc1ncnc2c1ncn2Cc1ccc(C23CC4CC(CC(C4)C2)C3)c(O)c1", "GI50": "24.6 µM"}
{"MOLECULE": "O=[N+]([O-])O.[NH-]C1CCCCC1[NH-].[NH-]C1CCCCC1[NH-].[NH-]C1CCCCC1[NH-].[OH-].[OH-].[OH-].[Pt+4].[Pt+4].[Pt+4] (stereo not drawn)", "GI50": "0.467 µM"}
{"MOLECULE": "O=C(CN=Cc1cccs1)CSC(c1ccccc1)c1ccccc1", "GI50": "25.8 µM"}
{"MOLECULE": "COc1cc(C2c3cc4c(cc3[C@@H](Nc3cccc(O)c3)C3COC(=O)[C@H]23)OCO4)cc(OC)c1O (stereo partly drawn)", "GI50": "0.535 µM"}
{"MOLECULE": "CN1CCN(C(=S)SCN2C(=O)c3ccccc3S2(=O)=O)CC1", "GI50": "11.6 µM"}

Input line: Please give the measured GI50 for this molecule: "COc1cc(C(=O)/C=C/c2c(C(F)(F)F)nc3sccn23)cc(OC)c1OC"
Output line: 1.36 µM

Input line: Please give the measured GI50 for this molecule: "C=C(C)[C@@H]1CCC[C@]2(C(=O)O)CC[C@]3(C)[C@@H](CC[C@@H]4[C@@]5(C)C/C(=C/c6ccncc6)C(=O)C(C)(C)[C@@H]5CC[C@]43C)[C@@H]12"
Output line: 1.84 µM

Input line: Please give the measured GI50 for this molecule: CCC1(N2C(=O)c3c(F)c(F)c(F)c(F)c3C2=O)C(=O)NC(=O)N(c2ccccc2)C1=O (stereo not drawn)
Output line: 1.18 µM

----------
test system: HOP-62 NSCLC; assay: NCI tumour cell line growth inhibition, 48 h
Measured TGI accompanies every entry in the list below.
Dear colleague, please return just the value in µM, with no unit written.

Illustrative cases are given below, each with its answer.
{"COMPOUND": "Cn1c(COC(=O)NCCN2CCOCC2)nc2c(N3CCOCC3)nc(-c3ccccc3)nc21", "MEASURED_ATTRIBUTE": "TGI", "MEASURED": 3.3}
{"COMPOUND": "CN(C)CCNc1nc2ccccc2c2c1C(=O)c1ccccc1-2", "MEASURED_ATTRIBUTE": "TGI", "MEASURED": 3.72}
{"COMPOUND": "CCCCCCCCCCCCNC(=O)[C@H]1CSC(c2ccc(OC)c(F)c2)N1 (stereo not given in full)", "MEASURED_ATTRIBUTE": "TGI", "MEASURED": 0.748}
{"COMPOUND": "BrCC[P+](c1ccccc1)(c1ccccc1)c1ccccc1", "MEASURED_ATTRIBUTE": "TGI", "MEASURED": 20.2}

Input line: Hello, I am looking for reported TGI with HOP-62 NSCLC for CN(C)CCNC(=O)c1cccc2c(NC(CS)C(=O)O)c3ccccc3nc12 (stereo not given) . Could you help?
Output line: 41.6

----------
test system: MDA-MB-435; assay: NCI tumour cell line growth inhibition, 48 h
Measured TGI accompanies every entry in the list below.

Illustrative cases are given below, each with its answer.
{"COMPOUND": "CC(=O)Oc1ccc2c(c1)c1c(OC(C)=O)c3ccccc3c(OC(C)=O)c1n2Cc1cccc(C)c1", "TGI": "> 100 µM"}
{"COMPOUND": "COCCCN1C(=O)C2c3[nH]c4ccccc4c3C3CCC(C(C)(C)C)CC3C2C1=O (stereo unspecified)", "TGI": "> 100 µM"}
{"COMPOUND": "CN1C(=O)[C@@]2(C=CC3(CC2)OCCO3)c2ccccc21", "TGI": "> 50 µM"}
{"COMPOUND": "N#Cc1ccc(N2Cc3cc(Cl)ccc3OC3=C2C(=O)N(Cc2ccccc2)C3=O)cc1", "TGI": "3.27 µM"}

Input line: Hello, I am looking for reported TGI with MDA-MB-435 for "Cc1cc(S(=O)(=O)NC(=NCC(=O)NN)NN)c(S)cc1Cl" . Could you help?
Output line: > 10 µM

Input line: Hello, I am looking for reported TGI with MDA-MB-435 for "Cc1nc(C(N)=S)sc1C(=O)CC(=O)C(=O)Nc1cccc(Cl)c1C" . Could you help?
Output line: > 100 µM

Input line: Hello, I am looking for reported TGI with MDA-MB-435 for "O=C(O)c1ccccc1-c1ccccc1C(=O)c1ccccc1" . Could you help?
Output line: > 100 µM

Input line: Hello, I am looking for reported TGI with MDA-MB-435 for CCCCC(=C=C1CCCCC1O)C1CCCN1C(=O)OC(C)(C)C (stereo unspecified) . Could you help?
Output line: 30.6 µM

Input line: Hello, I am looking for reported TGI with MDA-MB-435 for "CCc1nc(N)nc(N)c1-c1ccc([N+](=O)[O-])c(Cl)c1" . Could you help?
Output line: > 100 µM

Input line: Hello, I am looking for reported TGI with MDA-MB-435 for "CN1c2ccccc2C(=O)Nc2cnc(Cl)nc21" . Could you help?
Output line: > 100 µM

Input line: Hello, I am looking for reported TGI with MDA-MB-435 for C=CC1(CCC(Br)C(C)(C)Cl)CO1 (stereo unspecified) . Could you help?
Output line: > 10 µM

Recorded values, source PubChem BioAssay (NCI).
